test: qHTS assay to identify small molecule antagonists of the estrogen related receptor (ERR) signaling pathway from Tox21 library - cell viability counter screen (AID 1224834); conditions: ERR reporter cells viability, CellTiter-Fluor, 17.5 h; series mostly up to 92.4 µM; further: nearly all actives have a fitted effect of over 30% in size
Inconclusive results are not listed. Active and inactive are the calls of the source. The call rests on the fitted dose curve; in most records, active means well fitted cell-killing curve with a large enough effect in the repeat runs; inconclusive means weak or mixed curves; inactive means flat fitted curve, though single readings scatter.
Labels: T for active, F for inactive

>>> class_name("O=C(CCCN1CC=C(n2c(=O)[nH]c3ccccc32)CC1)c1ccc(F)cc1")
"T"
>>> class_name("COC(=O)CS")
"F"
>>> class_name("O=C(O)CCCCCCCCCCCBr")
"F"
>>> class_name("OCCOCC#CCOCCO")
"F"
>>> class_name("CCC1CO1 (stereo not given)")
"F"

====

experiment: qHTS assay to identify small molecule agonists of the sonic hedgehog signaling (Shh) pathway (AID 1259368); conditions: NIH/3T3 Gli1-Luc reporter, luciferase, 24 h; series mostly up to 92.4 µM; further: nearly all actives have a fitted effect of over 15% in size
Activity calls are given as the source filed them. Calls come from the whole dose curve.
Outcomes: Yes = active, No = inactive

>>> class_name("CC[C@]1(O)C[C@H]2CN(CCc3c([nH]c4ccccc34)[C@@](C(=O)OC)(c3cc4c(cc3OC)N(C=O)[C@H]3[C@@](O)(C(=O)OC)[C@H](OC(C)=O)[C@]5(CC)C=CCN6CC[C@]43[C@@H]65)C2)C1")
"No"
>>> class_name("Oc1cccc(Nc2ccccc2)c1")
"No"
>>> class_name("O=C(/C=C/c1ccc(O)c(O)c1)O[C@@H]1C[C@@](OC(=O)/C=C/c2ccc(O)c(O)c2)(C(=O)O)C[C@@H](O)[C@@H]1O")
"No"
>>> class_name("CCCCCCCCC(CCCCCC)C(=O)O (configuration not stated)")
"No"
>>> class_name("Cc1ccc(C(C)(C)O)cc1")
"No"
>>> class_name("COC(=O)C1=C(C)NC(C)=C(C(=O)O[C@@H]2CCCN(Cc3ccccc3)C2)[C@@H]1c1cccc([N+](=O)[O-])c1")
"No"
>>> class_name("CCCCCCCC/C=C\\CCCCCCCCCCCC(=O)O")
"No"
>>> class_name("C=C1CCC2CC1C2(C)C (configuration not stated)")
"No"
>>> class_name("CN1CCCN=C1COC(=O)C(O)(c1ccccc1)C1CCCCC1 (configuration not stated)")
"No"
>>> class_name("CC(C)=CCC/C(C)=C/CC/C(C)=C/CCC(=O)OC/C=C(\\C)CCC=C(C)C")
"No"
>>> class_name("CC(C)c1nc(CN(C)C(=O)N[C@H](C(=O)N[C@@H](Cc2ccccc2)C[C@H](O)[C@H](Cc2ccccc2)NC(=O)OCc2cncs2)C(C)C)cs1")
"No"
>>> class_name("COc1ccccc1NC(=O)c1cc2ccccc2cc1O")
"No"
>>> class_name("CC1(C)O[C@@H]2C[C@H]3[C@@H]4C[C@H](F)C5=CC(=O)C=C[C@]5(C)[C@H]4[C@@H](O)C[C@]3(C)[C@]2(C(=O)CO)O1")
"No"
>>> class_name("O=C(O)CCC(=O)C(=O)O")
"No"
>>> class_name("CO/N=C(/C(=O)N[C@@H]1C(=O)N2C(C(=O)O)=C(COC(N)=O)CS[C@H]12)c1ccco1")
"No"
>>> class_name("CCCC(=O)C(=O)O")
"No"
>>> class_name("O=C1Cc2ccccc2N1c1c(Cl)cccc1Cl")
"No"
>>> class_name("C=C(C)[C@@H]1CCC2=CCC[C@@H](C)[C@]2(C)C1")
"No"
>>> class_name("CC(C)Nc1cccnc1N1CCN(C(=O)c2cc3cc(NS(C)(=O)=O)ccc3[nH]2)CC1")
"No"
>>> class_name("CC(C)(c1ccccc1)c1ccccc1")
"No"
>>> class_name("CCOc1ccc(Cc2nccc3cc(OCC)c(OCC)cc23)cc1OCC")
"No"
>>> class_name("CC(=O)Nc1cc(S(=O)(=O)O)cc2cc(S(=O)(=O)O)c(N=Nc3ccccc3)c(O)c12")
"No"
>>> class_name("CC1=C(CC=O)C(C)(C)CCC1")
"No"
>>> class_name("O=C(O)CCCCCCCCCCCBr")
"No"
>>> class_name("CC(CCC(=O)O)C(=O)O (configuration not stated)")
"No"
>>> class_name("CC(=O)OCC[N+](C)(C)C")
"No"
>>> class_name("NC(=O)c1ccncc1")
"No"
>>> class_name("C=CC(=O)[O-].C=CC(=O)[O-].[Zn+2]")
"No"
>>> class_name("O=Cc1c2ccccc2c(Cl)c2ccccc12")
"No"
>>> class_name("CCCCN(CCCC)C(C(N)=O)c1ccc(OC)cc1 (configuration not stated)")
"No"
>>> class_name("CS(=O)(=O)c1ccc(-c2cn3ccccc3n2)cc1")
"Yes"
>>> class_name("CCOC(=O)c1ccccc1C(=C1C=C(Br)C(=O)C(Br)=C1)c1cc(Br)c(O)c(Br)c1")
"No"
